All figures here come from patent US20240174690A1.

tested on: KRAS G12V-dependent Ba/F3 cells; test: Ba/F3 proliferation assay, KRAS G12V; assay type: cell-based; conditions: Mus musculus, BaF3, 72 h, AlamarBlue
In this section we review reported log10(IC50) values for a set of molecules.
Form field - Quantity: IC50; Unit: µM; Scale: log10

>>> value_measured("C[C@H]1CNCCCN1c1cc(-n2ccnc2)nc(-c2noc3c2CCC[C@@]32CCCc3sc(N)c(C#N)c32)n1")
0.25
>>> value_measured("C[C@H](Oc1cc(-n2cc(C3CC3)nn2)nc(-c2noc3c2CCC[C@@]32CCCc3sc(N)c(C#N)c32)n1)[C@@H]1CCCN1C")
-1.59
>>> value_measured("C[C@H](Oc1cc(N2CCC[C@@H](O)C2)nc(-c2noc3c2CCC[C@@]32CCCc3sc(N)c(C#N)c32)n1)[C@@H]1CCCN1C")
-1.51
>>> value_measured("CO[C@H]1CCN(C)[C@@H]1[C@H](C)Oc1cc(N2CCNC3(CC3)C2)nc(-c2noc3c2CCC[C@@]32CCCc3sc(N)c(C#N)c32)n1")
-0.81
>>> value_measured("C[C@H](Oc1cc(N2CC[C@H](N(C)C)C2)nc(-c2noc3c2CCC[C@@]32CCCc3sc(N)c(C#N)c32)n1)[C@@H]1CCCN1C")
-0.52

-- ask Suppose we examine the molecule `C[C@H](Oc1cc(-c2cn[nH]c2)nc(-c2noc3c2CCC[C@@]32CCCc3sc(N)c(C#N)c32)n1)[C@@H]1CCCN1C` ; what log10(IC50) value has been reported?
-- reply -1.60

-- ask Suppose we examine the molecule `C[C@H](Oc1cc(-c2ccn(C[C@@H]3CCCO3)n2)nc(-c2noc3c2CCC[C@@]32CCCc3sc(N)c(C#N)c32)n1)[C@@H]1CCCN1C` ; what log10(IC50) value has been reported?
-- reply -2.10

-- ask Suppose we examine the molecule `C[C@H](Oc1cc(N2CCOC3(COC3)C2)nc(-c2noc3c2CCC[C@@]32CCCc3sc(N)c(C#N)c32)n1)[C@@H]1CCCN1C` ; what log10(IC50) value has been reported?
-- reply -1.96

-- ask Suppose we examine the molecule `C[C@H](Oc1cc(N2CCNC2=O)nc(-c2noc3c2CCC[C@@]32CCCc3sc(N)c(C#N)c32)n1)[C@@H]1CCCN1C` ; what log10(IC50) value has been reported?
-- reply -2.30

-- ask Suppose we examine the molecule `C[C@H](Oc1cc(-n2ccc(C(=O)N(C)C3COC3)n2)nc(-c2onc3c2CCC[C@@]32CCCc3sc(N)c(C#N)c32)n1)[C@@H]1CCCN1C` ; what log10(IC50) value has been reported?
-- reply -2.40

-- ask Suppose we examine the molecule `C[C@H](Oc1cc(-c2cnn(C)n2)nc(-c2noc3c2CCC[C@@]32CCCc3sc(N)c(C#N)c32)n1)[C@@H]1CCCN1C` ; what log10(IC50) value has been reported?
-- reply -1.85
